- Target Entity: human activated kallikrein enzyme (Homo sapiens)
- Sequence (P03952 391-638 limits assumed): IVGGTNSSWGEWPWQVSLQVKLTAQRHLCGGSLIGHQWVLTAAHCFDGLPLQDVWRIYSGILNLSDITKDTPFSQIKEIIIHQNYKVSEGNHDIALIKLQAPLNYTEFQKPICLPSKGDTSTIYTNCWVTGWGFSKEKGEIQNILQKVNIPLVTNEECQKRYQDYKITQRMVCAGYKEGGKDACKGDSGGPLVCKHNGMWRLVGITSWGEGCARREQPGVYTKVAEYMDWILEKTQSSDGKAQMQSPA
- Sequence (P03952 20-390 partner limits assumed): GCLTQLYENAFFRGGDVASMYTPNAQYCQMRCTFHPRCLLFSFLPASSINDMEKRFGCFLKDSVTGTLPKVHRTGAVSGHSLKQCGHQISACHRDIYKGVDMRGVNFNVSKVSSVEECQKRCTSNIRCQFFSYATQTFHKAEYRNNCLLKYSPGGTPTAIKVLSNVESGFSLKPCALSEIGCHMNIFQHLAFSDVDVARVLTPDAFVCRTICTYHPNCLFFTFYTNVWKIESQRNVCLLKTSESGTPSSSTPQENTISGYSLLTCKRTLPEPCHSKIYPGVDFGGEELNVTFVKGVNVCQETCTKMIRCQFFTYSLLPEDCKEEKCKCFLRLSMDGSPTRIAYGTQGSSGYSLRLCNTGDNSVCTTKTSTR
- Assay Procedure: Plasma kallikrein inhibition, fluorogenic PFR-AMC substrate, 500 pM activated kallikrein format
- Type: biochemical
- Measurement Setup: 500 pM activated kallikrein, 300 uM PFR-AMC, 30 min preincubation, 10 min reaction; read-out: Primary Dose Response Assay: Average EC50
pEC50: −log10 of the molar value.
# pEC50 per record follows

Compound | pEC50
CN1CCN(c2cc(C3CC3)cn3cc(CNc4cc(NC(=O)[C@H]5C[C@@H]5c5cccc(Cl)c5)ncn4)nc23)CC1 | > 9.00
O=C(Nc1cc(NCc2cn3cc(C4CC4)cc(C4(F)COC4)c3n2)ccn1)[C@H]1C[C@@H]1c1cccc(Cl)c1 (racemic) | > 9.00
Cc1ccnc([C@H]2C[C@@H]2C(=O)Nc2cc(NCc3cn4cc(C5CC5)cc(N5CC(=O)N(C)C5=O)c4n3)ncn2)c1 (racemic) | > 9.00
CCc1cc(N2CC(=O)N(C)C2=O)c2nc(CNc3cc(NC(=O)[C@H]4C[C@@H]4c4nccc(C)n4)ncn3)cn2c1 | > 9.00
Cc1ccnc([C@H]2C[C@@H]2C(=O)Nc2cc(N[C@@H](C)c3cn4cc(C5CC5)cc(N5CC(=O)N(C)C5=O)c4n3)ncn2)n1 (single isomer, unassigned) | 7.00 to 8.00
CC(C)(C)OC(=O)Nc1cc(Cl)cc([C@H]2C[C@@H]2C(=O)Nc2cc(NCc3cn4cc(C5CC5)ccc4n3)ncn2)c1 (racemic) | < 5.22

----------
- Target Entity: human activated kallikrein enzyme (Homo sapiens)
- Assay Procedure: Plasma kallikrein inhibition, fluorogenic PFR-AMC substrate, 500 pM activated kallikrein format
- Format: biochemical
- Measurement Setup: 500 pM activated kallikrein, 300 uM PFR-AMC, 30 min preincubation, 10 min reaction; read-out: Primary Dose Response Assay: Average EC50

Compound | EC50
Cc1ccnc([C@H]2C[C@@H]2C(=O)Nc2nncc(OCc3cn4cc(C5CC5)cc(N5CC(=O)N(C)C5=O)c4n3)n2)n1 | < 1 nM
Cc1ccnc([C@H]2C[C@@H]2C(=O)Nc2cc(N(C)Cc3cn4cc(C5CC5)cc(N5CC(=O)N(C)C5=O)c4n3)cnn2)n1 | < 1 nM
O=C(Nc1ncnc(NCc2cn3cc(C4CC4)ccc3n2)n1)[C@H]1C[C@@H]1c1cccc(Cl)c1 (racemic) | 1 to 10 nM

----------
# EC50 per record follows
- Target Entity: human activated kallikrein enzyme (Homo sapiens)
- Assay Procedure: Plasma kallikrein inhibition, fluorogenic PFR-AMC substrate, 500 pM activated kallikrein format
- Assay type: biochemical
- Measurement Setup: 500 pM activated kallikrein, 300 uM PFR-AMC, 30 min preincubation, 10 min reaction; read-out: Primary Dose Response Assay: Average EC50
Readout Name: EC50

Molecule | Readout Name | Value
Nc1cc(Cl)cc([C@H]2C[C@@H]2C(=O)Nc2cc(NCc3cn4cc(C5CC5)ccc4n3)ncn2)c1 (single isomer, unassigned) [Example I-258] | EC50 | 1000 to 6000 nM
Cc1ccnc([C@H]2C[C@@H]2C(=O)Nc2cc(OC(C)c3cn4cc(C5CC5)cc(N5CCOC5=O)c4n3)cnn2)n1 (stereo partly drawn) | EC50 | < 1 nM
CC1(C)CN(c2cc(C3CC3)cn3cc(CNc4cc(NC(=O)[C@H]5C[C@@H]5c5cccc(Cl)c5)ncn4)nc23)C(=O)O1 | EC50 | 1 to 10 nM
O=C(Nc1cnnc(NCc2cn3cc(C4CC4)ccc3n2)c1)[C@H]1C[C@@H]1c1cccc(Cl)c1 (racemic) | EC50 | 1 to 10 nM
CC(O)c1cc(C2CC2)cn2cc(CNc3cc(NC(=O)[C@H]4C[C@@H]4c4cccc(Cl)c4)ncn3)nc12 (stereo partly drawn) | EC50 | 1 to 10 nM
Cc1ccnc([C@H]2C[C@@H]2C(=O)Nc2nccc3nn(Cc4cn5cc(C6CC6)cc(N6CC(=O)N(C)C6=O)c5n4)cc23)n1 (racemic) | EC50 | < 1 nM

This collection of values is drawn from patent US20240228488A1.
